# Test system: NQO1 activation in BEAS-2B cells
# METHOD DESCRIPTION: BEAS-2B cellular MTT assay of NQO1 activation, 0.3% HSA
# Format: cell-based
# CONDITION INFO: Homo sapiens, BEAS+, read-out: BEAS+ EC50
PARAMETER MEASURED: pEC50
As a rule, pEC50 stands for the negative log10 of the concentration, concentration in M.

The recorded pEC50 for O=C(O)CC1c2ccc3c(c2)CN(CC3)C(=O)c2ccc(cn2)CCCCCn2nnc3c(Cl)c1ccc32 (stereo not shown) is 6.50

Value of pEC50 reported for the molecule Cc1cc2ccc1C(=O)N1CCc3ccc(cc3C1)C(CC(=O)O)c1ccc(nc1C)OCCCCC2 (stereo not shown) is 6.99

According to the records, this molecule Cc1cc2ccc1C(=O)N1CCc3ccc(cc3C1)C(CC(=O)O)c1ccc3c(c1)nnn3CCCCCCO2 (stereo not shown) displays pEC50 of 7.20

The value of pEC50 measured for the molecule Cc1cc2ccc1C(=O)N1CCc3ccc(cc3C1)C(CC(=O)O)c1cnc(cc1C)OCCCCC2 (stereo not shown) turned out to be 8.00

# pEC50 (molecule: C[C@H](C(=O)O)[C@H]1c2ccc3c(c2)CN(CC3)C(=O)c2ccc(cc2)OCCCCCCn2nnc3cc1ccc32 ) is 6.41

Lookup result for Cc1cc2ccc1C(=O)N1CCc3ccc(cc3C1)C(CC(=O)O)c1cnc(cc1C)OCCCCO2 (stereo not shown) ; measured pEC50: 6.64

====

# STUDY TARGET: HIS-Keap1 full length / Biotin-Nrf2 (16-mer) (Homo sapiens, UniProt Q14145)
# Sequence (Q14145 whole entry): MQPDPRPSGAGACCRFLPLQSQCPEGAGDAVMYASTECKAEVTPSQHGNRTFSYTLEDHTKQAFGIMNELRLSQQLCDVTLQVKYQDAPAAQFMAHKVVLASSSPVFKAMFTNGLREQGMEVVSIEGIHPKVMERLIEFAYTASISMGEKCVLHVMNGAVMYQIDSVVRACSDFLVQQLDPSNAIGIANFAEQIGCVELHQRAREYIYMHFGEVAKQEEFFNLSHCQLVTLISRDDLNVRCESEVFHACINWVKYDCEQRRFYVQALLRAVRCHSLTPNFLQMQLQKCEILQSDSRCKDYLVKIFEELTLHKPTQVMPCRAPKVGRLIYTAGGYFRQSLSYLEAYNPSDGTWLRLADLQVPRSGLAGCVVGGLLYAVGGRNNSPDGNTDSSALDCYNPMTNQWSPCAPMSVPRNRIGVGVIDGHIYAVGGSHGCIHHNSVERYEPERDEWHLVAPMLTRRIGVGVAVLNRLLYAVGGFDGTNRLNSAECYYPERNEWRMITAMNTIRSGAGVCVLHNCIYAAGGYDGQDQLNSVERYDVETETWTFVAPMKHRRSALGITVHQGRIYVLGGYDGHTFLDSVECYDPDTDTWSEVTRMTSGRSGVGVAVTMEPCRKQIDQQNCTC
# METHOD DESCRIPTION: biochemical
PARAMETER MEASURED: IC50 (nM)
Respond numerically; units are nM and should not be typed.

# IC50 (compound: O=C(O)CC1c2ccc3c(c2)CN(CC3)C(=O)c2ccc(cc2F)CCCCCn2nnc3c(Cl)c1ccc32 (centres unmarked) ) is 0.1

IC50 reading for Cc1c2ccc3c1nnn3CCCOCCOc1ccc(c(F)c1)C(=O)N1CCc3ccc(cc3C1)C2CC(=O)O (centres unmarked) : 0.9

For this compound ( COc1cc2ccc1CCCCCCn1nnc3c(C)c(cnc31)[C@@H](CC(=O)O)c1ccc3c(c1)CN(CC3)C2=O ), measured IC50 is 0.8

Lookup result for Cc1c2n(C)c3ccc(cc13)C/C=C\CCCn1nnc3c(C)c(cnc31)[C@H](CC(=O)O)c1ccc3c(c1)CN(CC3)C2=O ; measured IC50: 0.2

Lab note: C[C@@H](C(=O)O)[C@H]1c2ccc3c(c2)CN(CC3)C(=O)c2c(F)cc(cc2F)OCCCCCCn2nnc3cc1ccc32 gave IC50 of 4.9

Input Cc1cc2ccc1C(=O)N1CCc3ccc(cc3C1)C(CC(=O)O)c1ccc3c(nnn3CCCCCCO2)c1C (centres unmarked) . Output IC50: 0.2

C[C@H](C(=O)O)[C@@H]1c2ccc(nc2)OCC/C=C/Cc2ccc(cc2)C(=O)N2CCc3ccc1cc3C2 yielded IC50 of 26.4

So for Cc1c2ccc3c1nnn3CCCCCOc1ccc3ccc(cc3c1)C(=O)N1CCc3ccc(cc3C1)C2CC(=O)O (centres unmarked) , the logged IC50 turned out to be 1.6

The recorded IC50 for C[C@H](C(=O)O)[C@@H]1c2ccc3c(c2)CN(CC3)C(=O)c2ccc(cc2)OCCCCCn2nnc3cc1ccc32 is 3.2

Reported IC50 of Cc1c2ccc3c1nnn3CCC/C=C/COc1cnc(nc1)C(=O)N1CCc3ccc(cc3C1)C2CC(=O)O (centres unmarked) : 2

Data origin: patent US12692274B2
